Assay target: TRPC6 channel (Homo sapiens, UniProt Q9Y210)
Construct: expressed in transfected cells; host or cells: HEK293
Sequence (Q9Y210 whole entry): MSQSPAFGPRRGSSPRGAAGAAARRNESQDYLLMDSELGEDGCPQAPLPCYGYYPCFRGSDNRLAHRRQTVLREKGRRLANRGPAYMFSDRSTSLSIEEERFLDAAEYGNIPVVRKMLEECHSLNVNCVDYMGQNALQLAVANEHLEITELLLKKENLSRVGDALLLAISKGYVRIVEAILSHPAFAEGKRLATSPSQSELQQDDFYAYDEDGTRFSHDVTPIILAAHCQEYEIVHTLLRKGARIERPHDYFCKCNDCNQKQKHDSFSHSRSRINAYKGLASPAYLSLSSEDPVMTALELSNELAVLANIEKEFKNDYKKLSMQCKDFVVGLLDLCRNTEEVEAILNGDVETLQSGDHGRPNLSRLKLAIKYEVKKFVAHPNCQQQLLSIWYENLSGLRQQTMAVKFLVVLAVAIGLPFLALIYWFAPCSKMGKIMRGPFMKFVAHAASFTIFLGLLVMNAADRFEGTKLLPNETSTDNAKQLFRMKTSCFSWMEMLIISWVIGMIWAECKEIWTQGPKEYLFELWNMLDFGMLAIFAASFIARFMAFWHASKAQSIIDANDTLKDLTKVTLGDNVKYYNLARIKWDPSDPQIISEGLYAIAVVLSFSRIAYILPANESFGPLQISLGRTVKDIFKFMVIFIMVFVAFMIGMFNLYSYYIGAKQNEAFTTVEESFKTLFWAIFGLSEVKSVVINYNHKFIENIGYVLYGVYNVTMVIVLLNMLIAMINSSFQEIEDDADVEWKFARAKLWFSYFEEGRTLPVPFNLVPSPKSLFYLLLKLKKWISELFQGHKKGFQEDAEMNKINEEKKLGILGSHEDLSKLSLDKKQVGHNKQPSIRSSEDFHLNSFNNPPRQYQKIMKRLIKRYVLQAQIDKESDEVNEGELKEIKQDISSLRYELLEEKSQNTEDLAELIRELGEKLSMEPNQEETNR
Test: Calcium assay using HEK293 cells transiently expressing TRPC6 channel, carbachol activation (Fura-2)
Assay type: cell-based
Experimental parameters: 10 μM test compound, carbachol, TRPC6-expressing cells
# amount of increase in calcium ions relative to control (DMSO) taken as 100% annotations
Put down the number, then write its unit next to it.

Solved entries (count: 2):
molecule="FC(F)(F)c1cccc2onc(N3CC=C(c4ccccc4Cl)CC3)c12 [Compound 361]" assay_target="TRPC6 channel (Homo sapiens, UniProt Q9Y210)" measured_value=72%
molecule="O/N=C(/c1c(F)cccc1C(F)(F)F)N1CC=C(c2ccccc2Cl)CC1 [Compound 362(Z)]" assay_target="TRPC6 channel (Homo sapiens, UniProt Q9Y210)" measured_value=54%

Consider the molecule CCOC(=O)c1cnc(N2CCN(c3noc4cccc(C(F)(F)F)c34)CC2=O)c(Cl)c1 [Compound 371] and give its measured amount of increase in calcium ions relative to control (DMSO) taken as 100%.
61%

Consider the molecule O=C(O)c1cnc(N2CCN(c3noc4cccc(C(F)(F)F)c34)CC2)c(Cl)c1 [Compound 011] and give its measured amount of increase in calcium ions relative to control (DMSO) taken as 100%.
21%

Recorded values, source patent US11976062B2.
